Procedure details: Whole blood zalunfiban and M1 concentrations (LC-MS/MS) and non-compartmental PK, phase 1 mass balance study
Format: in vivo, human
Condition: male, human, whole blood, sc, 9.5 mg, geometric mean, n=8; single SC 9.5 mg; read-out: AUC0-last, whole blood zalunfiban
Endpoint name: AUC(0-t) (ng·h/mL)
Answers are plain numbers, in ng·h/mL.

AUC(0-t) recorded for this compound, NCC(=O)Nc1cncc(-c2nn3c(=O)cc(N4CCNCC4)nc3s2)c1 [Zalunfiban] , is 107

* * *

Procedure details: Whole blood zalunfiban and M1 concentrations (LC-MS/MS) and non-compartmental PK, phase 1 mass balance study
Type: in vivo, human
Condition: male, human, whole blood, sc, 9.5 mg, mean, n=8; single SC 9.5 mg
Endpoint name: Tmax (min)
Numbers only, in min.

Tmax recorded for this molecule, NCC(=O)Nc1cncc(-c2nn3c(=O)cc(N4CCNCC4)nc3s2)c1 [Zalunfiban] , is 15.6

* * *

Procedure details: Whole blood zalunfiban and M1 concentrations (LC-MS/MS) and non-compartmental PK, phase 1 mass balance study
Assay type: in vivo, human
Condition: male, human, whole blood, sc, 9.5 mg, geometric mean, n=8; single SC 9.5 mg
Description: This was a Phase 1, single-centre, open-label, non-controlled, mass balance and metabolite profiling study of ^14C-radiolabeled zalunfiban in health male volunteers (NCT04284995). The planned participant enrolment size was 8, with 2 additional alternate participants available on the morning of dosing. […] Zalunfiban and M1 whole blood concentrations were measured using a validated LC-MS/MS method in compliance with the ICH-M10 guideline. […]
Endpoint name: Cmax (ng/mL)
Numbers only, in ng/mL.

Cmax recorded for this compound, NCC(=O)Nc1cncc(-c2nn3c(=O)cc(N4CCNCC4)nc3s2)c1 , is 94.6

* * *

Procedure details: Whole blood zalunfiban and M1 concentrations (LC-MS/MS) and non-compartmental PK, phase 1 mass balance study
Assay type: in vivo, human
Condition: male, human, whole blood, sc, 9.5 mg, median, n=8; single SC 9.5 mg; read-out: AUC0-inf, whole blood zalunfiban
Endpoint name: AUC(0-inf) (ng·h/mL)
Numbers only, in ng·h/mL.

AUC(0-inf) recorded for this compound, NCC(=O)Nc1cncc(-c2nn3c(=O)cc(N4CCNCC4)nc3s2)c1 , is 123

* * *

Procedure details: Whole blood zalunfiban and M1 concentrations (LC-MS/MS) and non-compartmental PK, phase 1 mass balance study
Assay type: in vivo, human
Condition: male, human, whole blood; median, n=8; single SC 9.5 mg; read-out: Vz/F, whole blood zalunfiban
Endpoint name: Vd/F (L)
One number for each entry, in L.

Vd/F recorded for this compound, NCC(=O)Nc1cncc(-c2nn3c(=O)cc(N4CCNCC4)nc3s2)c1 [Zalunfiban] , is 96.6

* * *

Procedure details: Whole blood zalunfiban and M1 concentrations (LC-MS/MS) and non-compartmental PK, phase 1 mass balance study
Assay type: in vivo, human
Condition: male, human, whole blood, sc, 9.5 mg, median, n=8; single SC 9.5 mg; read-out: Kel, whole blood zalunfiban (converted)
Endpoint name: k el

k el recorded for this molecule, NCC(=O)Nc1cncc(-c2nn3c(=O)cc(N4CCNCC4)nc3s2)c1 [Zalunfiban] , is 0.000229 s⁻¹

* * *

Procedure details: Whole blood zalunfiban and M1 concentrations (LC-MS/MS) and non-compartmental PK, phase 1 mass balance study
Assay type: in vivo, human
Condition: male, human, whole blood, sc, 9.5 mg, mean, n=8; single SC 9.5 mg ^14C-zalunfiban
Endpoint name: Cmax
Write the numeric value and append its unit.

Cmax recorded for this compound, NCC(=O)Nc1cncc(-c2nn3c(=O)cc(N4CCNCC4)nc3s2)c1 , is 95.2 ng/mL

* * *

Procedure details: Whole blood zalunfiban and M1 concentrations (LC-MS/MS) and non-compartmental PK, phase 1 mass balance study
Assay type: in vivo, human
Condition: male, human, whole blood, sc, 9.5 mg, median, n=8; single SC 9.5 mg
Endpoint name: Tmax

Tmax recorded for this compound, NCC(=O)Nc1cncc(-c2nn3c(=O)cc(N4CCNCC4)nc3s2)c1 [Zalunfiban] , is ~15 min

* * *

Procedure details: Whole blood zalunfiban and M1 concentrations (LC-MS/MS) and non-compartmental PK, phase 1 mass balance study
Assay type: in vivo, human
Condition: male, human, whole blood, sc, 9.5 mg, mean, n=8; single SC 9.5 mg; read-out: Kel, whole blood zalunfiban (converted)
Endpoint name: k el (s⁻¹)
Give bare numbers, in s⁻¹.

k el recorded for this compound, NCC(=O)Nc1cncc(-c2nn3c(=O)cc(N4CCNCC4)nc3s2)c1 [Zalunfiban] , is 0.000218

* * *

Procedure details: Whole blood zalunfiban and M1 concentrations (LC-MS/MS) and non-compartmental PK, phase 1 mass balance study
Type: in vivo, human
Condition: male, human, whole blood, sc, 9.5 mg, median, n=8; single SC 9.5 mg
Endpoint name: Cmax
Write the numeric value and append its unit.

Cmax recorded for this compound, NCC(=O)Nc1cncc(-c2nn3c(=O)cc(N4CCNCC4)nc3s2)c1 [Zalunfiban] , is 96.9 ng/mL

* * *

Procedure details: Water solubility
Assay type: physicochemical
Endpoint name: solubility

solubility recorded for this compound, Nc1cncc(-c2nn3c(=O)cc(N4CCNCC4)nc3s2)c1 , is < 0.01 µg/mL

* * *

Procedure details: Whole blood zalunfiban and M1 concentrations (LC-MS/MS) and non-compartmental PK, phase 1 mass balance study
Format: in vivo, human
Condition: male, human, whole blood, sc, 9.5 mg, mean, n=8; single SC 9.5 mg; read-out: AUC0-inf, whole blood zalunfiban
Endpoint name: AUC(0-inf) (ng·h/mL)
Answers are plain numbers, in ng·h/mL.

AUC(0-inf) recorded for this compound, NCC(=O)Nc1cncc(-c2nn3c(=O)cc(N4CCNCC4)nc3s2)c1 , is 118

* * *

Procedure details: Whole blood zalunfiban and M1 concentrations (LC-MS/MS) and non-compartmental PK, phase 1 mass balance study
Assay type: in vivo, human
Condition: male, human, whole blood, subcutaneous, 9.5 mg, median
Endpoint name: Tmax (min)
Numbers only, in min.

Tmax recorded for this compound, NCC(=O)Nc1cncc(-c2nn3c(=O)cc(N4CCNCC4)nc3s2)c1 [Zalunfiban] , is 15

* * *

Procedure details: Whole blood zalunfiban and M1 concentrations (LC-MS/MS) and non-compartmental PK, phase 1 mass balance study
Assay type: in vivo, human
Condition: male, human, whole blood, sc, 9.5 mg, mean terminal half-life, n=8; single SC 9.5 mg; read-out: t1/2, whole blood zalunfiban (converted)
Endpoint name: half-life

half-life recorded for this molecule, NCC(=O)Nc1cncc(-c2nn3c(=O)cc(N4CCNCC4)nc3s2)c1 , is ~1 h

* * *

Procedure details: Whole blood zalunfiban and M1 concentrations (LC-MS/MS) and non-compartmental PK, phase 1 mass balance study
Type: in vivo, human
Condition: male, human, whole blood, sc, 9.5 mg, geometric mean, n=8; single SC 9.5 mg; read-out: Kel, whole blood zalunfiban (converted)
Endpoint name: k el (s⁻¹)
One number for each entry, in s⁻¹.

k el recorded for this compound, NCC(=O)Nc1cncc(-c2nn3c(=O)cc(N4CCNCC4)nc3s2)c1 , is 0.00021

* * *

Procedure details: Whole blood zalunfiban and M1 concentrations (LC-MS/MS) and non-compartmental PK, phase 1 mass balance study
Assay type: in vivo, human
Condition: male, human, whole blood, sc, 9.5 mg, median, n=8; single SC 9.5 mg; read-out: t1/2, whole blood zalunfiban (converted)
Endpoint name: half-life (min)
Give bare numbers, in min.

half-life recorded for this compound, NCC(=O)Nc1cncc(-c2nn3c(=O)cc(N4CCNCC4)nc3s2)c1 , is 50.4
